experiment: Clinical dose-escalation trial of Compound I: pharmacokinetics; format: in vivo, human; conditions: human, blood; at steady state; read-out: mean elimination half-life t1/2
MEASURED_ENDPOINT: half-life

SMILES_ENTRY | MEASURED_ENDPOINT | MEAS_VALUE
O=C(O)c1ccc(-n2nc(-c3ccccc3O)nc2-c2ccccc2O)cc1 | half-life | 12 to 13 h
